biological target: Receptor tyrosine-protein kinase erbB-2 (Homo sapiens); test: Inhibition of recombinant human His-tagged cytoplasmic ERBB2 expressed in baculovirus expression system by Z'-LYTE assay
Sequence (P04626 whole entry): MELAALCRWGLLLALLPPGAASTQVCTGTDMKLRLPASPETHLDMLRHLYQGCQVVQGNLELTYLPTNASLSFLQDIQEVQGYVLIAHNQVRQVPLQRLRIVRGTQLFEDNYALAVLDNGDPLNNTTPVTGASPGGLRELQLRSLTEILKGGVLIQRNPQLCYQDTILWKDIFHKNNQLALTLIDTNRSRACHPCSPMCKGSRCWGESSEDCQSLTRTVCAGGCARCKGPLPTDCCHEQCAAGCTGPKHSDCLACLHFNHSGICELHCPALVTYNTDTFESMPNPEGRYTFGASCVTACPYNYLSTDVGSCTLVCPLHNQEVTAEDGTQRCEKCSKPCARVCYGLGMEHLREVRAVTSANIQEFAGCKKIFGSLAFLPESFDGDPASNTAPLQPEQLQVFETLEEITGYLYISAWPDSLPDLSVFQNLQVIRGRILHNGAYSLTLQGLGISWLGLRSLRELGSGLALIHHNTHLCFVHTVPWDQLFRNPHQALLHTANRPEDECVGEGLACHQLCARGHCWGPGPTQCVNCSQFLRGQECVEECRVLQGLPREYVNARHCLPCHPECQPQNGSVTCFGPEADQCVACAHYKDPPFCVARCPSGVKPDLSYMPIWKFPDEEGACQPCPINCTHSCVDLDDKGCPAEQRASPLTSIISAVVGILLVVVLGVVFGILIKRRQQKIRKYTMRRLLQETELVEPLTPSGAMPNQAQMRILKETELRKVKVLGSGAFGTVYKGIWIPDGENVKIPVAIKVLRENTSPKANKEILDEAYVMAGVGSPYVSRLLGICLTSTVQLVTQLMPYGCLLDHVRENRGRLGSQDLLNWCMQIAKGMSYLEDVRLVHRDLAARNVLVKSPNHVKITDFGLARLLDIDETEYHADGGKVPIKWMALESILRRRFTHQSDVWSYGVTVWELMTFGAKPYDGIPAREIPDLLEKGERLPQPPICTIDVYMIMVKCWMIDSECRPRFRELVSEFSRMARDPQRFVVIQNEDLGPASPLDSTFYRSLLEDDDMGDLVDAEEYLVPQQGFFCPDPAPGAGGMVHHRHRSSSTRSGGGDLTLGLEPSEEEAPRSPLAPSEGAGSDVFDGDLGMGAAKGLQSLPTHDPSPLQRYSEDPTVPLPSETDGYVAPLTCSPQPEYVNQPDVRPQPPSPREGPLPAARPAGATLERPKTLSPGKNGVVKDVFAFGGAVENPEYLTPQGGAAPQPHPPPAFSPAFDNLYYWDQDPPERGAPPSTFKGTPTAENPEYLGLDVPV
testReadout: IC50 (µM)
State the answer as a number, implicitly in µM.

{"molecule": "O=C(NCC(F)(F)F)c1cc(-c2cnn3cc(-c4ccc(OCCN5CCCCC5)cc4)cnc23)cs1", "systemName": "Receptor tyrosine-protein kinase erbB-2 (Homo sapiens)", "endpointResult": 35}

Consider now this further molecule.
Requested read-out IC50, target or system Receptor tyrosine-protein kinase erbB-2 (Homo sapiens), entry Cn1cc(-c2cnc3c(-c4csc(C(=O)N[C@@H]5CCCC[C@@H]5N)c4)cnn3c2)cn1 (racemic) 1
